Each entry below carries its measured Kd, system: UniProt:P06241.
Sequence (P06241 whole entry): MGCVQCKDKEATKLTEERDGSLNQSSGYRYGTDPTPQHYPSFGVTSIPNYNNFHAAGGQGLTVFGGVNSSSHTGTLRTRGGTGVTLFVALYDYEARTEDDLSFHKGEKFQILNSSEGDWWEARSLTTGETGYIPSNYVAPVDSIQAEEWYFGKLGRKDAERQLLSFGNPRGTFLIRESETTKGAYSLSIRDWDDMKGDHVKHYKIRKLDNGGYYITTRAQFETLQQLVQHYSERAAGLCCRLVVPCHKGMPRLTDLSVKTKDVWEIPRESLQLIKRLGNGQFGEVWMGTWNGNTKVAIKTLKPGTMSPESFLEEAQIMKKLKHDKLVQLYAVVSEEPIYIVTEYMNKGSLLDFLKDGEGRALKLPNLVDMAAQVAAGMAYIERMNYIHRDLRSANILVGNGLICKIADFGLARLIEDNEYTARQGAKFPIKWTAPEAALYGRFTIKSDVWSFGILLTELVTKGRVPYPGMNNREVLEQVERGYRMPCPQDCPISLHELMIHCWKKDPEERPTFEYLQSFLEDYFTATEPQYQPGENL
Active and inactive are the calls of the source.

List the reported Kd of each compound below.
1. Cn1ncc(Cl)c1-c1cc(C(=O)N[C@H](CN)Cc2ccc(F)c(F)c2)oc1Cl
2. CNC(=O)c1cccc2cc(Oc3ccnc4cc(OCC5(N)CC5)c(OC)cc34)ccc12
3. COc1cc([C@@H]2c3cc4c(cc3[C@H](O)[C@H]3COC(=O)[C@@H]23)OCO4)cc(OC)c1OC
4. CN1C/C=C/CCOc2cccc(c2)-c2ccnc(n2)Nc2cccc(c2)C1
5. CCn1cc(-c2ccnc3[nH]c(-c4cccc(CN(C)C)c4)cc23)c(-c2ccc(NC(=O)N(C)C)cc2)n1
6. COCC(=O)NC/C=C/c1ccc2ncnc(Nc3ccc(Oc4ccc(C)nc4)c(C)c3)c2c1
7. C[C@@H](NC(=O)c1ncnc(N)c1Cl)c1ncc(C(=O)Nc2cc(C(F)(F)F)c(Cl)cn2)s1
8. C=CC(=O)Nc1cc2c(Nc3ccc(F)c(Cl)c3)ncnc2cc1C#CC(C)(C)N1CCN(C)CC1 [AV-412 FREE BASE]

Given back:
["> 30 µM (inactive)", "> 30 µM (inactive)", "> 30 µM (inactive)", "> 30 µM (inactive)", "> 30 µM (inactive)", "> 30 µM (inactive)", "> 30 µM (inactive)", "> 30 µM (inactive)"]
